Compiled literature Ki, tested on Leucine-rich repeat serine/threonine-protein kinase 2 (Homo sapiens, UniProt Q5S007).
Sequence (Q5S007 whole entry): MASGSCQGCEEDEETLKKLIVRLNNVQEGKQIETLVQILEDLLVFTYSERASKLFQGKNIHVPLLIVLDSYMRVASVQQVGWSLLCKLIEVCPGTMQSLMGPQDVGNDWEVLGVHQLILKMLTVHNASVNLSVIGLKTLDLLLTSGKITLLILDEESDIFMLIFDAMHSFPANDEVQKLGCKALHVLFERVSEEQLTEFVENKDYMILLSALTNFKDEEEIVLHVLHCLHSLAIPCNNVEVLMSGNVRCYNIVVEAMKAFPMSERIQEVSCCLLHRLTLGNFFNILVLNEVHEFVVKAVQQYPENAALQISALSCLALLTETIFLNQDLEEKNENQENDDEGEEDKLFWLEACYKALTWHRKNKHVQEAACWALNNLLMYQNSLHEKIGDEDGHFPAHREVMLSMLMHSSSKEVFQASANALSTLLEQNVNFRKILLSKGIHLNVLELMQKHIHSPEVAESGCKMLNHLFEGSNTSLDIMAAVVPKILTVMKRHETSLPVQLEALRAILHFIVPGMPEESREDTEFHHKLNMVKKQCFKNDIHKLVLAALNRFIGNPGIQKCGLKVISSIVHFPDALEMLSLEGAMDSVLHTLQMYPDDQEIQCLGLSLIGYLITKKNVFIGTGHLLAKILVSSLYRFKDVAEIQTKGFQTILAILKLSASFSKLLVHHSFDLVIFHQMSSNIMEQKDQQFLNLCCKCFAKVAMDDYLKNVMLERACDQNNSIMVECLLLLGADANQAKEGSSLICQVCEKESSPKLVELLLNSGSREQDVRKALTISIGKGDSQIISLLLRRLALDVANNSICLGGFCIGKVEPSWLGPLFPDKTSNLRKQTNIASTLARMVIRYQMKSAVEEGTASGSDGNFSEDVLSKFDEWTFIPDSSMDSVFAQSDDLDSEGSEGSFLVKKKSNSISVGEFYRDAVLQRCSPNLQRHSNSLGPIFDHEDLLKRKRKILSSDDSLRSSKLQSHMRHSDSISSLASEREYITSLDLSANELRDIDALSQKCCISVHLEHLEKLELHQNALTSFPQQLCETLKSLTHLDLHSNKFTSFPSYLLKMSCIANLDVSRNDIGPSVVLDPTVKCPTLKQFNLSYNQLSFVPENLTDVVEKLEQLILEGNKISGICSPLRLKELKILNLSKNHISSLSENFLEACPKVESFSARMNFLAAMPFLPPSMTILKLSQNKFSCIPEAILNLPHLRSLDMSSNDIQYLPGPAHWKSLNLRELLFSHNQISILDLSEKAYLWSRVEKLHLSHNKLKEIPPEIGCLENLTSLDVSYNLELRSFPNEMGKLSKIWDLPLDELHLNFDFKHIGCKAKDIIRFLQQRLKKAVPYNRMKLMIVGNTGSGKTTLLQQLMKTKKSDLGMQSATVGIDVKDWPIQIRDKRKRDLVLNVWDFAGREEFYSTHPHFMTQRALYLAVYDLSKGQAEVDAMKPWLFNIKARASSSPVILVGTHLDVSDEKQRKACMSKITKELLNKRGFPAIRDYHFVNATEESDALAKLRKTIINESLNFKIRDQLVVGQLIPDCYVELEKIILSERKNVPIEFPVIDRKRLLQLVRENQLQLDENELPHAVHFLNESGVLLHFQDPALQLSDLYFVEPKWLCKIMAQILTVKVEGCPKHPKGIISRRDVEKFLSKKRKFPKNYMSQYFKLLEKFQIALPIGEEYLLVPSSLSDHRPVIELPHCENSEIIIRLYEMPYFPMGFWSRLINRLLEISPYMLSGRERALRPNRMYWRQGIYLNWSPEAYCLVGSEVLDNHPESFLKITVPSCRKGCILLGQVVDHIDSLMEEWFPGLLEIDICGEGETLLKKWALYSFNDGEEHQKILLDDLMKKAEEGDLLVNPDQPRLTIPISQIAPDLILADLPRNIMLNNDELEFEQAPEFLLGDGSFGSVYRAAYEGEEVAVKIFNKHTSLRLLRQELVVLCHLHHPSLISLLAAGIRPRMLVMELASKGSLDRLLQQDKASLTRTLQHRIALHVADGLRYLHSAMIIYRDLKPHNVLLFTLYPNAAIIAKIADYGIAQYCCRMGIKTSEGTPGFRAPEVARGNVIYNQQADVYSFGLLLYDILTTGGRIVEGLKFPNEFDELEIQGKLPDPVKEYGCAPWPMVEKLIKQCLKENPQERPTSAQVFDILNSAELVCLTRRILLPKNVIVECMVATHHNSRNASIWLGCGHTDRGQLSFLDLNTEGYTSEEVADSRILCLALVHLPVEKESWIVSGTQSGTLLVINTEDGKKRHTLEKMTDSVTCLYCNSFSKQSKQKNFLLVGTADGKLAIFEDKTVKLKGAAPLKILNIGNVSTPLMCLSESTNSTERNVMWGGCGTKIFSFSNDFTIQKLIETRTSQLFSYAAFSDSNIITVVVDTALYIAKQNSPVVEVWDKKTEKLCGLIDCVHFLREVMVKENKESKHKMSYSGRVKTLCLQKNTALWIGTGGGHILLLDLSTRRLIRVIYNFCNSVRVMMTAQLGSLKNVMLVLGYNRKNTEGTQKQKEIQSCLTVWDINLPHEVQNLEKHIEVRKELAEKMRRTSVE
Class assignment keyed on Ki, ranges 0 = under 4 nM, 1 = from 4 nM up to 300 nM, 2 = 300 nM and over

MOLECULE | ASSAYED_TARGET | CLASSIFICATION
CNc1nc(Nc2ccc(C(=O)N3CCOCC3)cc2C)ncc1Cl | Leucine-rich repeat serine/threonine-protein kinase 2 (Homo sapiens, UniProt Q5S007) | 1
CC1(C)CC(=O)c2c(S(C)(=O)=O)sc(-c3cc[nH]n3)c2C1 | Leucine-rich repeat serine/threonine-protein kinase 2 (Homo sapiens, UniProt Q5S007) | 2
CNc1nc(Nc2ccc(C(=O)N3CCOCC3)cc2OC)ncc1Br | Leucine-rich repeat serine/threonine-protein kinase 2 (Homo sapiens, UniProt Q5S007) | 0
CNc1nc(Nc2ccc(C(=O)N3CCOCC3)cc2OC)ncc1F | Leucine-rich repeat serine/threonine-protein kinase 2 (Homo sapiens, UniProt Q5S007) | 1
CSc1sc(-c2cc[nH]n2)c2c1C(=O)NC(C(F)(F)F)C2 (racemic) | Leucine-rich repeat serine/threonine-protein kinase 2 (Homo sapiens, UniProt Q5S007) | 2

Which class is correct for the following molecule? "CNc1nc(Nc2ccccc2C)ncc1Cl"
1

Which bin, given its Ki, does "Cc1c(Nc2nc(N)c3c(C#N)c(N4CCC[C@H]4C)n(C)c3n2)cnn1C" occupy?
0

Kindly identify the class of "C[C@@H]1CCCN1c1c(C(N)=O)c2c(N)ncnc2n1C" .
1

GET /class?item= "O=C1NCCc2c(-c3cc[nH]n3)sc(SC3CCCCC3)c21"
2

* * *

Study the reported Ki values for Leucine-rich repeat serine/threonine-protein kinase 2 (Homo sapiens, UniProt Q5S007) given below; they originate from different publications.
Please give a number only; it is taken to be in nM.

Study these solved cases before continuing.
COMPOUND | ASSAYED_TARGET | QUANTITY | READOUT_NUMBER
C[C@H]1CNC(=O)c2c(SCC3CC3)sc(-c3cc[nH]n3)c21 | Leucine-rich repeat serine/threonine-protein kinase 2 (Homo sapiens, UniProt Q5S007) | Ki | 83
CNc1nc(Nc2cnn3c2C(C)OCC3)ncc1C(F)(F)F (stereo unspecified) | Leucine-rich repeat serine/threonine-protein kinase 2 (Homo sapiens, UniProt Q5S007) | Ki | 3
Cn1c(-c2ccccc2)c(C#N)c2c(N)ncnc21 | Leucine-rich repeat serine/threonine-protein kinase 2 (Homo sapiens, UniProt Q5S007) | Ki | 30
CSc1sc(-c2cc[nH]n2)c2c1C(=O)NC[C@@H]2C | Leucine-rich repeat serine/threonine-protein kinase 2 (Homo sapiens, UniProt Q5S007) | Ki | 319

Assay Leucine-rich repeat serine/threonine-protein kinase 2 (Homo sapiens, UniProt Q5S007), sample "CNc1nc(Nc2cc(C)c(C(=O)N3CCOCC3)cc2Cl)ncc1C(F)(F)F" , Ki read: 7

* * *

Let's look at some Ki data for Leucine-rich repeat serine/threonine-protein kinase 2 (Homo sapiens, UniProt Q5S007) that I collected from the literature.
Number in nM, nothing else.

Look over these answered cases.
COMPOUND | ASSAYED_TARGET | UNITS_SYMBOL | Ki
C[C@@H]1CCCN1c1[nH]c2ncnc(N)c2c1C#N | Leucine-rich repeat serine/threonine-protein kinase 2 (Homo sapiens, UniProt Q5S007) | nM | 4
Cn1c(-n2cccc2)c(C#N)c2c(N)ncnc21 | Leucine-rich repeat serine/threonine-protein kinase 2 (Homo sapiens, UniProt Q5S007) | nM | 239
CCSc1sc(-c2cc[nH]n2)c2c1C(=O)NCC2 | Leucine-rich repeat serine/threonine-protein kinase 2 (Homo sapiens, UniProt Q5S007) | nM | 589
CNc1nc(Nc2cc(F)c(S(C)(=O)=O)cc2OC)ncc1C(F)(F)F | Leucine-rich repeat serine/threonine-protein kinase 2 (Homo sapiens, UniProt Q5S007) | nM | 2
CNc1nc(Nc2cnn3c2COC(C)(C)C3)ncc1C(F)(F)F | Leucine-rich repeat serine/threonine-protein kinase 2 (Homo sapiens, UniProt Q5S007) | nM | 0.9

Case "CSc1sc(-c2cc[nH]n2)c2c1C(=O)CCC2" , Leucine-rich repeat serine/threonine-protein kinase 2 (Homo sapiens, UniProt Q5S007), Ki recorded as 312
